System: BT-549 breast
Assay: NCI-60 one-dose screen, 48 h (100 = growth as untreated, 0 = no growth, -100 = all killed)
Settings: 10 µM unless noted
The panel holds about 83,000 compounds, 20% with a hit somewhere; the sample as a whole holds those more often.
Checkbox rule: growth lower than 90% = label 1; growth not lower than 90% = label 0.

INSERT INTO assay_data (compound, cat) VALUES
  ('CCCCCCCCCCCCNC(=O)[C@H]1CSC(c2cc(Br)cs2)N1 (stereo not given in full)', 'label 1'),
  ('COc1ccc(C(=O)N2NC(=O)/C(=C/c3ccccc3F)N=C2c2ccccc2)cc1', 'label 0'),
  ('O=C1/C(=C/c2ccccc2)CN(C(=O)CCN2CCC(=NO)CC2)C/C1=C\c1ccccc1', 'label 1'),
  ('O=C(CSc1nc2ccccc2[nH]1)c1ccc(N2CCOCC2)cc1', 'label 0');

// provenance: PubChem BioAssay (NCI)
